Just for reference, paper PMC9033141 is where these values come from.

systemName: CAI (Homo sapiens, UniProt P00915)
Construct: made in house; host or cells: E. coli
Sequence (P00915 whole entry): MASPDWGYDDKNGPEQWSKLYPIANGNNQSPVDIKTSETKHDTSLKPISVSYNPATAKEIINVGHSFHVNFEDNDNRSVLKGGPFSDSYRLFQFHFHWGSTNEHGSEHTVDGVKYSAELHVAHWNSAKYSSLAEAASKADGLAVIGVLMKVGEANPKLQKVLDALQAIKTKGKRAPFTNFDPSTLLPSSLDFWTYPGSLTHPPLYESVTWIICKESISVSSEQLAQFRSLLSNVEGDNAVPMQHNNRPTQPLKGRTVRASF
protocolText: biochemical
Format: binding
experimentalParameters: FTSA, pH 7.0, 37 °C; read-out: Observed Dissociation Constant (Kd_obs), CAI
measurementName: Kd (µM)

molecule="NS(=O)(=O)c1ccc(NCC(CC(=O)NN=Cc2ccc(C(=O)O)cc2)C(=O)NN=Cc2ccc(C(=O)O)cc2)c(Cl)c1 (stereo not shown) [Compound 18b]" result=5
molecule="Cc1cc(C)n(C(=O)CC(CNc2ccc(S(N)(=O)=O)cc2Cl)C(=O)n2nc(C)cc2C)n1 (stereo not shown)" result=5

(P) Cc1ccc(C)n1NC(=O)CC(CNc1ccc(S(N)(=O)=O)cc1Cl)C(=O)Nn1c(C)ccc1C (stereo not shown) [Compound 19b]
(Q) CNC(=S)NNC(=O)CC(CNc1ccc(S(N)(=O)=O)cc1)C(=O)NNC(=S)NC (stereo not shown) [Compound 22a]
Among P and Q , whose measured Kd is the smaller figure? Could you answer with the label of the item you picked?
P

====

systemName: CAII (Homo sapiens, UniProt P00918)
Construct: made in house; host or cells: E. coli
protocolText: biochemical
Assay type: binding
experimentalParameters: FTSA, pH 7.0, 37 °C; read-out: Observed Dissociation Constant (Kd_obs), CAII
pKd: −log10 of the molar value.
measurementName: pKd

(1) NS(=O)(=O)c1ccc(NCC(CC(=O)NN=Cc2ccccc2)C(=O)NN=Cc2ccccc2)c(Cl)c1 (stereo not shown) [Compound 6b]
(2) NS(=O)(=O)c1ccc(NCC(CC(=O)NN=Cc2ccc(F)cc2)C(=O)NN=Cc2ccc(F)cc2)cc1 (stereo not shown) [Compound 13a]
Field: lower pKd | Options: 1 / 2 // respond with label for picked entry
2
(2: 5.54, 1: 6.62)

(a) CNC(=S)NNC(=O)CC(CNc1ccc(S(N)(=O)=O)cc1Cl)C(=O)NNC(=S)NC (stereo not shown) [Compound 22b]
(b) Cc1csc(N(CCC(=O)NN=Cc2ccccc2)c2ccc(S(N)(=O)=O)cc2)n1 [Compound 30]
(c) NS(=O)(=O)c1ccc(NCC(CC(=O)NN=Cc2ccc(Cl)cc2)C(=O)NN=Cc2ccc(Cl)cc2)c(Cl)c1 (stereo not shown) [Compound 12b]
(d) NS(=O)(=O)c1ccc(NCC(CC(=O)NN=Cc2cccc(O)c2)C(=O)NN=Cc2cccc(O)c2)cc1 (stereo not shown) [Compound 8a]
(e) NS(=O)(=O)c1ccc(NCC(CC(=O)NN=Cc2ccc(O)cc2)C(=O)NN=Cc2ccc(O)cc2)c(Cl)c1 (stereo not shown) [Compound 9b]
Order the 5 compounds from highest to lowest pKd. Dear reader, please state the labels in the requested order.
e, a, c, d, b
(e: 6.70, a: 6.40, c: 5.96, d: 5.70, b: 5.40)

(P) NS(=O)(=O)c1ccc(NCC(CC(=O)NN=Cc2cccc(Cl)c2)C(=O)NN=Cc2cccc(Cl)c2)c(Cl)c1 (stereo not shown) [Compound 11b]
(Q) CC(C)=NNC(=O)CC(CNc1ccc(S(N)(=O)=O)cc1)C(=O)NN=C(C)C (stereo not shown) [Compound 3a]
Higher pKd between P and Q ? Answer by stating the label of the chosen item.
P
(P: 6.48, Q: 4.89)

====

pKd: −log10 of the molar value.
The next entries give measured pKd for CAIII (Homo sapiens, UniProt P07451).

The examples below pair each entry with its known result.
compound=NS(=O)(=O)c1ccc(N(CCC(=O)O)c2nc(-c3ccc(Cl)cc3)c(Cl)s2)cc1 systemname="CAIII (Homo sapiens, UniProt P07451)" result=4.77
compound="NS(=O)(=O)c1ccc(NCC(CC(=O)NNC(=S)Nc2ccccc2)C(=O)NNC(=S)Nc2ccccc2)c(Cl)c1 (stereo not drawn) [Compound 23b]" systemname="CAIII (Homo sapiens, UniProt P07451)" result=4.82
compound="NS(=O)(=O)c1ccc(NCC(CC(=O)NN=Cc2ccccc2)C(=O)NN=Cc2ccccc2)c(Cl)c1 (stereo not drawn)" systemname="CAIII (Homo sapiens, UniProt P07451)" result="≤ 3.70"
compound="CNC(=S)NNC(=O)CC(CNc1ccc(S(N)(=O)=O)cc1Cl)C(=O)NNC(=S)NC (stereo not drawn) [Compound 22b]" systemname="CAIII (Homo sapiens, UniProt P07451)" result="≤ 3.70"
compound="CNC(=S)NNC(=O)CC(CNc1ccc(S(N)(=O)=O)cc1)C(=O)NNC(=S)NC (stereo not drawn) [Compound 22a]" systemname="CAIII (Homo sapiens, UniProt P07451)" result="≤ 3.70"
compound=Cc1csc(N(CCC(=O)O)c2ccc(S(N)(=O)=O)cc2)n1 systemname="CAIII (Homo sapiens, UniProt P07451)" result=4.20
compound="Cc1ccc(C)n1NC(=O)CC(CNc1ccc(S(N)(=O)=O)cc1Cl)C(=O)Nn1c(C)ccc1C (stereo not drawn) [Compound 19b]" systemname="CAIII (Homo sapiens, UniProt P07451)" result="≤ 3.70"
compound=COC(=O)CCN(c1ccc(S(N)(=O)=O)cc1)c1nc(C)cs1 systemname="CAIII (Homo sapiens, UniProt P07451)" result="≤ 3.70"

Recorded pKd for `CCOC(=O)c1sc(N(CCC(=O)O)c2ccc(S(N)(=O)=O)cc2)nc1C` , please?
≤ 3.70

// pKd lookup, key: NS(=O)(=O)c1ccc(NCC(CC(=O)NN=Cc2ccc(C(=O)O)cc2)C(=O)NN=Cc2ccc(C(=O)O)cc2)c(Cl)c1 (stereo not drawn) [Compound 18b]
≤ 3.70

For NS(=O)(=O)c1ccc(NCC(CC(=O)NN=Cc2ccc(O)cc2)C(=O)NN=Cc2ccc(O)cc2)c(Cl)c1 (stereo not drawn) , what is its reported pKd?
≤ 3.70

If you can, please state the reported pKd value of `Cc1csc(N(CCC(=O)NN)c2ccc(S(N)(=O)=O)cc2)n1` .
≤ 3.70
